# System: DU-145 prostate
# PROTOCOL_NOTES: NCI-60 one-dose screen, 48 h (100 = growth as untreated, 0 = no growth, -100 = all killed)
# EXPERIMENTAL_CONTEXT: 10 µM unless noted
# Protocol: Cells are grown in 96 well plates and exposed to the test compound for 48 hours. Compounds are tested at a single concentration, which is 10^-5 M for most compounds. The reported endpoint is percent growth (GI% or GIPRCNT), where numbers from 0 - 100% represent growth inhibition, and numbers from -100% - 0 represent cell death. For example, a value of 40 represents 60% growth inhibition. A value of 0 means no net growth occurred over the course of the experiment. […]
This is part of a sample that, as a whole, favours compounds with a hit. Of some 83,000 tested, about 20% had one in any assay.
Outcome: class 1 for growth of at least 20%; class 0 for anything lower.

[Q] Test whether the compound CC/C(=C(/c1ccc(Cl)cc1)c1ccc(OCCCN(C)C)cc1)c1ccc(OC)cc1 records growth of 20% or higher.
[A] class 1

[Q] Entry to check: CCC(=C(c1ccc(OCCN(CC)CC)cc1)c1ccc(OCCN(CC)CC)cc1)c1ccc(Cl)cc1
[A] class 0

[Q] Entry to check: COc1nc2ccccc2cc1/C=[N+](\[O-])c1ccccc1
[A] class 1

[Q] Entry to check: C#CC(F)(F)[C@]1(O)CCC2C3CCC4=CC(=O)CCC4=C3[C@@H](c3ccc(N(C)C)cc3)C[C@@]21C (some centres undefined)
[A] class 1

[Q] Entry to check: CCN1C(=O)N(CC)C2C1NN=c1s/c(=C\c3ccc(F)cc3)c(=O)n12 (centres undefined)
[A] class 0

[Q] Entry to check: CC(C)=CCC[C@](C)(O)C1CC[C@]2(C)[C@@H]1CC[C@@H]1[C@@]3(C)CC/C(=N\OCCC#N)C(C)(C)[C@@H]3CC[C@]12C (some centres undefined)
[A] class 1

[Q] Entry to check: CO[C@]12C=C/C(=C(/C(=O)OCc3cccnc3)C(=O)CCCCCCCC[C@]3(OC)C=C/C(=C(/C(=O)OCc4cccnc4)C(=O)CCCCCCCC1)O3)O2
[A] class 0

[Q] Entry to check: C=C(C)Cn1c(SCC(=O)c2cccs2)nc2sc3c(c2c1=O)CCCC3
[A] class 1

[Q] Entry to check: Cn1ccnc1C(=O)/C=C/c1ccc(C(=O)Nc2ccccc2F)cc1
[A] class 1

[Q] Entry to check: COc1ccccc1NC(=O)n1c(=O)cc(C)c2ccc(O)cc21
[A] class 1

[Q] Entry to check: COCCNC(=O)Cc1cc(-c2ccc(Cl)cc2)n(-c2ccccc2)c1C
[A] class 1

[Q] Entry to check: CCN(CC)CCCNC(=O)c1c2c(n3ccccc13)C(=O)c1ncccc1C2=O
[A] class 0

[Q] Entry to check: O=C1CCC(C(=O)N/N=C/c2ccc([N+](=O)[O-])cc2)N1 (centres undefined)
[A] class 1

[Q] Entry to check: CCOC(=O)c1cc(C(=O)c2cc(OC)cc(OC)c2)n2ccccc12
[A] class 1

[Q] Entry to check: N#CSCc1cc(Cl)c(CSC#N)cc1Cl
[A] class 1

[Q] Entry to check: Nc1nc(=O)n([C@H]2CC=C(CO)O2)cc1F
[A] class 1

[Q] Entry to check: COc1ccc2c(O)cc3c(c2c1)[C@H](CCl)CN3C(=O)c1cc2cc(NC(=O)CCN3CCOCC3)ccc2[se]1
[A] class 0

[Q] Entry to check: COc1cc(C(=O)/C=C/c2c(-c3cccs3)nc3sc(C)cn23)cc(OC)c1OC
[A] class 0

[Q] Entry to check: CC1=C(C(=O)OCc2ccccc2)C(c2ccc3c(c2)OCO3)n2c(nc3ccccc32)N1 (centres undefined)
[A] class 1
